Where do the numbers come from? From ChEMBL document CHEMBL1212848.

System: HeLa
method-summary: Cellular uptake in human HeLa cells assessed as retention time at 2 uM after 48 hrs by HPLC-MS analysis
Type: ADME, cell-based
# maps each entry to its Time

- compound: "CC/C(=C(\\c1ccccc1)c1ccc(OCC[N+](C)(C)C)cc1)c1ccccc1.[I-] [TAMOXIFEN METHYL IODIDE]"
  Time / min: 5
- compound: "CCC[N+](C)(C)CCOc1ccc(/C(=C(/CC)c2ccccc2)c2ccccc2)cc1.[Br-] [TAMOXIFEN PROPYL BROMIDE]"
  Time / min: 9
- compound: "CC/C(=C(\\c1ccccc1)c1ccc(OCC[N+](C)(C)C(C)C)cc1)c1ccccc1.[Br-] [TAMOXIFEN ISOPROPYL BROMIDE]"
  Time / min: 10
- compound: "CCCC[N+](C)(C)CCOc1ccc(/C(=C(/CC)c2ccccc2)c2ccccc2)cc1.[Br-] [TAMOXIFEN BUTYL BROMIDE]"
  Time / min: 10
- compound: "CC/C(=C(\\c1ccccc1)c1ccc(OCCN(C)C)cc1)c1ccccc1 [TAMOXIFEN]"
  Time / min: 9
- compound: "CC/C(=C(\\c1ccccc1)c1ccc(OCC[N+](C)(C)CC)cc1)c1ccccc1.[Br-] [TAMOXIFEN ETHYL BROMIDE]"
  Time / min: 8

* * *

tested-on: Estrogen receptor (Homo sapiens, UniProt P03372)
Sequence (P03372 whole entry): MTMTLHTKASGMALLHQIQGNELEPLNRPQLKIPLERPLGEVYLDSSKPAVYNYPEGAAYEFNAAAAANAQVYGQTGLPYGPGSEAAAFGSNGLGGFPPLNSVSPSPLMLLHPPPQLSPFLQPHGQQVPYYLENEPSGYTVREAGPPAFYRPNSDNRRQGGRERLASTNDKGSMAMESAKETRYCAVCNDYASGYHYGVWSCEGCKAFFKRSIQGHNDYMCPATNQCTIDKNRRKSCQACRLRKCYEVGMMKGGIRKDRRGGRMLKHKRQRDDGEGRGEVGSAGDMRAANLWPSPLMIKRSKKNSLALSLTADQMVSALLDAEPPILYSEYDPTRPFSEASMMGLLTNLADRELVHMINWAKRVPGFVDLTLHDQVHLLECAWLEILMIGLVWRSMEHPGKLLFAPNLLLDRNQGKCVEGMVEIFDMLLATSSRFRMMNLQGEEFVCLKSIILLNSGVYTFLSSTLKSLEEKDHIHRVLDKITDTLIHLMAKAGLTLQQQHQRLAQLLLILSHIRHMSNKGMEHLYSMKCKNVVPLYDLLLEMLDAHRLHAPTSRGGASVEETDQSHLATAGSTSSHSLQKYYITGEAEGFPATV
pKi: −log10 of the molar value.
property: pKi

- compound: "CC/C(=C(\\c1ccccc1)c1ccc(OCC[N+](C)(C)C)cc1)c1ccccc1.[I-] [TAMOXIFEN METHYL IODIDE]"
  tested-on: "Estrogen receptor (Homo sapiens, UniProt P03372)"
  property: "pKi"
  value-measured: 7.33
- compound: "CC/C(=C(\\c1ccccc1)c1ccc(OCC[N+](C)(C)CC)cc1)c1ccccc1.[Br-] [TAMOXIFEN ETHYL BROMIDE]"
  tested-on: "Estrogen receptor (Homo sapiens, UniProt P03372)"
  property: "pKi"
  value-measured: 7.86
- compound: "CCCC[N+](C)(C)CCOc1ccc(/C(=C(/CC)c2ccccc2)c2ccccc2)cc1.[Br-] [TAMOXIFEN BUTYL BROMIDE]"
  tested-on: "Estrogen receptor (Homo sapiens, UniProt P03372)"
  property: "pKi"
  value-measured: 7.89
- compound: "CC/C(=C(\\c1ccccc1)c1ccc(OCC[N+](C)(C)C(C)C)cc1)c1ccccc1.[Br-] [TAMOXIFEN ISOPROPYL BROMIDE]"
  tested-on: "Estrogen receptor (Homo sapiens, UniProt P03372)"
  property: "pKi"
  value-measured: 7.59
